Molecular target: 5-Lipoxygenase (Rattus norvegicus, UniProt P12527)
Construct: The activities of these enzymes in extracts of RBL-1 cells were assayed; host or cells: RBL-1 cells, disrupted by nitrogen cavitation; 10,000 x g or 100,000 x g supernatant
Sequence (P12527 whole entry): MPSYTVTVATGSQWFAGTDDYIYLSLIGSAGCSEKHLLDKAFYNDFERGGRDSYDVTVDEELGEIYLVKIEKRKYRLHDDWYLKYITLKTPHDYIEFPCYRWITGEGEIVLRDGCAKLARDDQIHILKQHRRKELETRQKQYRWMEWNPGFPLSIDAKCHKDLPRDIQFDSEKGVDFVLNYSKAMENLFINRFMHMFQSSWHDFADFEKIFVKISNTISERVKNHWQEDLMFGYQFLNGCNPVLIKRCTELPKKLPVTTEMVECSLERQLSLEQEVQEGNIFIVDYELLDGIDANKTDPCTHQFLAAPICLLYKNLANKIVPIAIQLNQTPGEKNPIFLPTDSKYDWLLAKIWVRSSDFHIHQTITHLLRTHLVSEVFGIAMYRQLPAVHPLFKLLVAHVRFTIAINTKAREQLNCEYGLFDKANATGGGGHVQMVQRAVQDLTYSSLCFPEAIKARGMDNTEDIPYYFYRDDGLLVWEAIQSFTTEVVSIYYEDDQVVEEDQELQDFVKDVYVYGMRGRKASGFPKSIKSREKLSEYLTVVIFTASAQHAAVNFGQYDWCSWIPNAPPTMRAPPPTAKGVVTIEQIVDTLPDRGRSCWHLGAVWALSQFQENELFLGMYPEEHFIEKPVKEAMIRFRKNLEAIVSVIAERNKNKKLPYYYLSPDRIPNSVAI
Experiment: 5-HETE production by RBL-1 high speed supernatant
Type: biochemical
Details: Table 8A; RBL-1 high speed supernatant
pIC50: −log10 of the molar value.
readout-name: pIC50

>  <compound>
Fc1ccc(-c2nc3n(c2-c2ccc(F)cc2)CCS3)cc1 [Compound 19]

>  <tested-on>
5-Lipoxygenase (Rattus norvegicus, UniProt P12527)

>  <reported-measurement>
5.07

$$$$
>  <compound>
N#Cc1ccc(-c2nc3n(c2-c2ccc(C#N)cc2)CCS3)cc1 [Compound 13]

>  <tested-on>
5-Lipoxygenase (Rattus norvegicus, UniProt P12527)

>  <reported-measurement>
4.80

$$$$
>  <compound>
CCOC(=O)N1C=CC(c2c(-c3ccc(F)cc3)nc3n2CCS3)C=C1 [Compound 48]

>  <tested-on>
5-Lipoxygenase (Rattus norvegicus, UniProt P12527)

>  <reported-measurement>
5.05

$$$$
>  <compound>
Fc1ccc(-c2nc3n(c2-c2ccncc2)CCC3)cc1 [Compound 39]

>  <tested-on>
5-Lipoxygenase (Rattus norvegicus, UniProt P12527)

>  <reported-measurement>
4.17

$$$$
>  <compound>
O=C(c1ccccc1)N1C=CC(c2c(-c3ccc(F)cc3)nc3n2CCS3)C=C1 [Compound 49]

>  <tested-on>
5-Lipoxygenase (Rattus norvegicus, UniProt P12527)

>  <reported-measurement>
4.14

$$$$
>  <compound>
O=S1(=O)CCn2c1nc(-c1ccc(F)cc1)c2-c1ccncc1 [Compound 29]

>  <tested-on>
5-Lipoxygenase (Rattus norvegicus, UniProt P12527)

>  <reported-measurement>
4.00

$$$$
>  <compound>
Fc1ccc(-c2nc3n(c2-c2ccccn2)CCS3)cc1 [Compound 23]

>  <tested-on>
5-Lipoxygenase (Rattus norvegicus, UniProt P12527)

>  <reported-measurement>
4.05

$$$$
>  <compound>
COc1ccc(-c2nc3n(c2-c2ccc(OC)cc2)CCC3)cc1 [Compound 22]

>  <tested-on>
5-Lipoxygenase (Rattus norvegicus, UniProt P12527)

>  <reported-measurement>
5.40

$$$$
>  <compound>
Fc1ccc(-c2c(-c3ccncc3)nc3n2CCS3)cc1 [Compound 12]

>  <tested-on>
5-Lipoxygenase (Rattus norvegicus, UniProt P12527)

>  <reported-measurement>
4.80

$$$$

Provenance of the data: patent EP0231622B1
